Origin of values: patent US20230416248A1

tested.system: BRG-1 (Homo sapiens)
Construct: made in house; host or cells: High Five insect cells
test.protocol: ATPase catalytic activity of BRG-1, ADP-Glo in vitro biochemical assay
cond: ADP-Glo ATPase assay, 30 nM BRG-1, 400 μM ATP; read-out: BRG1 IC50
pIC50: −log10 of the molar value.
Quick rule: pIC50 of at least 6 means Fulfilled, below that means Not fulfilled.

compound | assigned.label
O=C(NCc1cc2nc(-c3cccc(N4CCCOCC4)n3)ccc2cn1)c1ccc2c(c1)S(=O)(=O)CCOC2 | Fulfilled
N=S1(=O)CCOCc2ccc(C(=O)NCc3cc4nc(-c5cncc(C6CC6)n5)ccc4cn3)cc21 (stereo not shown) | Not fulfilled
CN1CCc2nc(-c3ccc4cnc(CNC(=O)c5ccc6c(c5)S(=O)(=O)CCOC6)cc4n3)ccc21 | Not fulfilled
C[C@@H]1CN(c2cccc(-c3ccc4cnc(CNC(=O)c5ccc6c(c5)S(=O)(=O)CCCC6)cc4n3)n2)C[C@H](C)O1 | Fulfilled
CN(c1cnc2c(c1)OCCN2c1ccc2cnc(CNC(=O)c3ccc4c(c3)S(=O)(=O)CCOC4)cc2n1)C1CCC1 | Fulfilled
CC(C)(F)c1cccc(-c2ccc3cnc(CNC(=O)c4ccc5c(c4)S(=O)(=O)CCOC5)cc3n2)n1 | Not fulfilled
C[C@@H]1CN(c2nc(-c3ccc4cnc(CNC(=O)c5ccc6c(c5)S(=O)(=O)CCOC6)cc4n3)ccc2F)C[C@H](C)O1 | Fulfilled
O=C(NCc1cc2nc(-c3cncc(C4CC4)n3)ccc2cn1)c1ccc2c(c1)S(=O)(=O)NCCC2 | Not fulfilled
O=C(NCc1cc2nc(-c3cncc(C4CC4)n3)ccc2cn1)c1cc(Cl)c2c(c1)S(=O)(=O)CCOC2 | Not fulfilled
O=C(NCc1cc2nc(-c3ccnc([C@@H]4CC4(F)F)n3)ccc2cn1)c1ccc2c(c1)S(=O)(=O)CCOC2 | Not fulfilled
C[C@@H]1CN(c2cncc(-c3ccc4cnc(CNC(=O)c5ccc(Cl)c(S(C)(=O)=O)c5)cc4n3)n2)C[C@H](C)O1 | Fulfilled
COCCCN(C)c1cccc(-c2ccc3cnc(CNC(=O)c4ccc5c(c4)S(=O)(=O)CCOC5)cc3n2)n1 | Fulfilled
O=C(NCc1cc2nc(-c3cccc(Cl)c3)ccc2cn1)c1ccc2c(c1)S(=O)(=O)CCOC2 | Not fulfilled
CN(C)[C@H]1CCN(c2cccc(-c3ccc4cnc(CNC(=O)c5ccc6c(c5)S(=O)(=O)CCOC6)cc4n3)n2)CC1(F)F | Not fulfilled
C[C@H]1CN(c2cccc(-c3ccc4cnc(CNC(=O)c5ccc6c(c5)S(=O)(=O)CCOC6)cc4n3)n2)C[C@H](C)O1 | Fulfilled
COc1cc(C(F)F)ccc1-c1ccc2cnc(CNC(=O)c3ccc4c(c3)S(=O)(=O)CCOC4)cc2n1 | Fulfilled
O=C(NCc1cc2nc(-c3cncc(C4CC4)n3)ccc2cn1)c1ccc2c(c1)S(=O)(=O)CCOC2 | Fulfilled
C[C@@H]1CN(c2cccc(-c3ccc4cnc(CNC(=O)c5cnc6c(c5)S(=O)(=O)[C@@H](C)COC6)cc4c3)n2)C[C@H](C)O1 | Fulfilled

---

tested.system: BRG-1 (Homo sapiens, UniProt P51532)
Construct: made in house; host or cells: High Five insect cells
Sequence (P51532 whole entry): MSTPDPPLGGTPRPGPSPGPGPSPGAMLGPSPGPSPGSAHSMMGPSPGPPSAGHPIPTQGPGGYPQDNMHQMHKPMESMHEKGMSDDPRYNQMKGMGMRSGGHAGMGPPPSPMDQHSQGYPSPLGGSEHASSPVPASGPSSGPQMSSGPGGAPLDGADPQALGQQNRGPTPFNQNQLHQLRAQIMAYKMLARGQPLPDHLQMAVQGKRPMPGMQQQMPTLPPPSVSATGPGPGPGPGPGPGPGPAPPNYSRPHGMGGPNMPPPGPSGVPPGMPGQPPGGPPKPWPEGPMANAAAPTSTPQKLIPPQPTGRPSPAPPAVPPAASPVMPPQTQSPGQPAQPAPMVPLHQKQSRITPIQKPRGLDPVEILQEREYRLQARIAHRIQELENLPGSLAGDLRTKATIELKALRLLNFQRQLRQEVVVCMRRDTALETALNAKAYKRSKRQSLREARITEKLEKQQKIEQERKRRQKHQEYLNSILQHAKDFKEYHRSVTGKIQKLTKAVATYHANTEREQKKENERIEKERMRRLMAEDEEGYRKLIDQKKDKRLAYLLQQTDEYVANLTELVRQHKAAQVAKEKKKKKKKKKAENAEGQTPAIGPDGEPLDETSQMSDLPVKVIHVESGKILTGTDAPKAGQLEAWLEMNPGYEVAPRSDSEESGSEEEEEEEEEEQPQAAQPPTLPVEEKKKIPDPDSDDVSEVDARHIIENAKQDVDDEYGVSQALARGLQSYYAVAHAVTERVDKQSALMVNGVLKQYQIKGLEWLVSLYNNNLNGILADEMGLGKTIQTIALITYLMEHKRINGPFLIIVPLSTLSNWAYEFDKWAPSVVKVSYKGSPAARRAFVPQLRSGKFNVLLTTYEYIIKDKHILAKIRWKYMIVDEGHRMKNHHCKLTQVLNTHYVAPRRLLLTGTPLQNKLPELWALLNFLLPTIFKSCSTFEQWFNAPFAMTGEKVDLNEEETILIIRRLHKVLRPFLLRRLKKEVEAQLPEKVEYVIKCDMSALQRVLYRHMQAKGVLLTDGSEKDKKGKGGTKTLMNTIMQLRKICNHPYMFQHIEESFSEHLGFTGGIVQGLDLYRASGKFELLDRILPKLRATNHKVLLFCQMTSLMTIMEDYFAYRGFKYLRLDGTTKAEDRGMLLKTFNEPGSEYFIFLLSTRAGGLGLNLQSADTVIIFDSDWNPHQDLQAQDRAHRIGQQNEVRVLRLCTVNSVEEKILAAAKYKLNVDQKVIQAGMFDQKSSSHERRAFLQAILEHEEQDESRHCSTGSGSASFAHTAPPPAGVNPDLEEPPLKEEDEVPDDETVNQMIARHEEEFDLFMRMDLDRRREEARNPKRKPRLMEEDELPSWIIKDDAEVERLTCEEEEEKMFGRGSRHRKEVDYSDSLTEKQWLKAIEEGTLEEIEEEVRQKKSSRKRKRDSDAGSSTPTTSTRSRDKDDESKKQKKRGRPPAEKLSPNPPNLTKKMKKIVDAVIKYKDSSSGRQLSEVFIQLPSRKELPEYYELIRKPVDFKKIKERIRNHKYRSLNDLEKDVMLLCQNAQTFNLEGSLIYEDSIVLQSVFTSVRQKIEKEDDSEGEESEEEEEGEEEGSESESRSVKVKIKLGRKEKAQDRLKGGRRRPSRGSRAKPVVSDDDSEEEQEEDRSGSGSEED
test.protocol: ATPase catalytic activity of BRG-1, ADP-Glo in vitro biochemical assay
cond: ADP-Glo ATPase assay, 30 nM BRG-1, 400 μM ATP; read-out: BRG1 IC50
pIC50: −log10 of the molar value.
# Lookup of reported pIC50 keyed by entry
reported.metric: pIC50

compound | observed.result
O=C(NCc1cc2cc(N3CCOc4cc(N5CCOCC5)cnc43)ccc2cn1)c1ccc2c(c1)S(=O)(=O)CCOC2 [Compound 798] | 7.36
CO[C@@H]1CCN(c2cccc(-c3ccc4cnc(CNC(=O)c5ccc6c(c5)S(=O)(=O)CCOC6)cc4n3)n2)C1 [Compound 200] | 7.23
O=C(NCc1cc2nc(-c3cccc(C4CC4)n3)ccc2cn1)c1cnc2c(c1)S(=O)(=O)CCOC2 [Compound 204] | 6.17
CO[C@@H]1CCCN(c2cccc(-c3ccc4cnc(CNC(=O)c5ccc6c(c5)S(=O)(=O)CCOC6)cc4n3)n2)C1 [Compound 92] | 6.99
O=C(NCc1cc2nc(N3CC(F)Cc4cccnc43)ccc2cn1)c1ccc2c(c1)S(=O)(=O)CCOC2 (centres unmarked) [Compound 842] | 6.48
O=C(NCc1cc2nc(-c3ccc4c(n3)N(CC(F)F)CC4)ccc2cn1)c1ccc2c(c1)S(=O)(=O)CCOC2 [Compound 119] | 6.66
O=C(NCc1cc2nc(-c3ccc4ccn(CC(F)F)c4n3)ccc2cn1)c1ccc2c(c1)S(=O)(=O)CCOC2 [Compound 140] | 6.61
O=C(NCc1cc2nc(N3CCOc4cc(C5CC5)cc(F)c43)ccc2cn1)c1ccc2c(c1)S(=O)(=O)CCOC2 [Compound 765] | 6.55
COc1cc(C2CC2)nc2c1CCCN2c1ccc2cnc(CNC(=O)c3ccc4c(c3)S(=O)(=O)CCOC4)cc2n1 [Compound 771] | 6.76
CN(c1cccc(-c2ccc3cnc(CNC(=O)c4ccc5c(c4)S(=O)(=O)CCOC5)cc3n2)n1)C1CCOCC1 [Compound 174] | 6.58
COC1CN(c2cccc(-c3ccc4cnc(CNC(=O)c5ccc6c(c5)S(=O)(=O)CCOC6)cc4n3)n2)C1 [Compound 228] | 6.55

---

tested.system: BRG-1 (Homo sapiens, UniProt P51532)
Construct: made in house; host or cells: High Five insect cells
test.protocol: ATPase catalytic activity of BRG-1, ADP-Glo in vitro biochemical assay
cond: ADP-Glo ATPase assay, 30 nM BRG-1, 400 μM ATP; read-out: BRG1 IC50
pIC50: −log10 of the molar value.
# Lookup of reported pIC50 keyed by entry

molecule.smiles | tested.system | pIC50
Cc1ccc(C(=O)NCc2cc3nc(-c4cccc(N5C[C@@H](C)O[C@@H](C)C5)n4)ccc3cn2)cc1S(C)(=O)=O | BRG-1 (Homo sapiens, UniProt P51532) | 7.50
Cc1ccc(C(=O)NCc2cc3nc(-c4cncc(C5CC5)n4)ccc3cn2)cc1S(=O)(=O)C(C)C | BRG-1 (Homo sapiens, UniProt P51532) | 5.30
O=C(NCc1cc2nc(N3CCOc4c3ncc(C3CC3)c4F)ccc2cn1)c1ccc2c(c1)S(=O)(=O)CCOC2 | BRG-1 (Homo sapiens, UniProt P51532) | 6.82

---

# Lookup of reported pIC50 keyed by entry
tested.system: BRM (Homo sapiens)
Construct: made in house; host or cells: High Five insect cells
Sequence (P51531 whole entry): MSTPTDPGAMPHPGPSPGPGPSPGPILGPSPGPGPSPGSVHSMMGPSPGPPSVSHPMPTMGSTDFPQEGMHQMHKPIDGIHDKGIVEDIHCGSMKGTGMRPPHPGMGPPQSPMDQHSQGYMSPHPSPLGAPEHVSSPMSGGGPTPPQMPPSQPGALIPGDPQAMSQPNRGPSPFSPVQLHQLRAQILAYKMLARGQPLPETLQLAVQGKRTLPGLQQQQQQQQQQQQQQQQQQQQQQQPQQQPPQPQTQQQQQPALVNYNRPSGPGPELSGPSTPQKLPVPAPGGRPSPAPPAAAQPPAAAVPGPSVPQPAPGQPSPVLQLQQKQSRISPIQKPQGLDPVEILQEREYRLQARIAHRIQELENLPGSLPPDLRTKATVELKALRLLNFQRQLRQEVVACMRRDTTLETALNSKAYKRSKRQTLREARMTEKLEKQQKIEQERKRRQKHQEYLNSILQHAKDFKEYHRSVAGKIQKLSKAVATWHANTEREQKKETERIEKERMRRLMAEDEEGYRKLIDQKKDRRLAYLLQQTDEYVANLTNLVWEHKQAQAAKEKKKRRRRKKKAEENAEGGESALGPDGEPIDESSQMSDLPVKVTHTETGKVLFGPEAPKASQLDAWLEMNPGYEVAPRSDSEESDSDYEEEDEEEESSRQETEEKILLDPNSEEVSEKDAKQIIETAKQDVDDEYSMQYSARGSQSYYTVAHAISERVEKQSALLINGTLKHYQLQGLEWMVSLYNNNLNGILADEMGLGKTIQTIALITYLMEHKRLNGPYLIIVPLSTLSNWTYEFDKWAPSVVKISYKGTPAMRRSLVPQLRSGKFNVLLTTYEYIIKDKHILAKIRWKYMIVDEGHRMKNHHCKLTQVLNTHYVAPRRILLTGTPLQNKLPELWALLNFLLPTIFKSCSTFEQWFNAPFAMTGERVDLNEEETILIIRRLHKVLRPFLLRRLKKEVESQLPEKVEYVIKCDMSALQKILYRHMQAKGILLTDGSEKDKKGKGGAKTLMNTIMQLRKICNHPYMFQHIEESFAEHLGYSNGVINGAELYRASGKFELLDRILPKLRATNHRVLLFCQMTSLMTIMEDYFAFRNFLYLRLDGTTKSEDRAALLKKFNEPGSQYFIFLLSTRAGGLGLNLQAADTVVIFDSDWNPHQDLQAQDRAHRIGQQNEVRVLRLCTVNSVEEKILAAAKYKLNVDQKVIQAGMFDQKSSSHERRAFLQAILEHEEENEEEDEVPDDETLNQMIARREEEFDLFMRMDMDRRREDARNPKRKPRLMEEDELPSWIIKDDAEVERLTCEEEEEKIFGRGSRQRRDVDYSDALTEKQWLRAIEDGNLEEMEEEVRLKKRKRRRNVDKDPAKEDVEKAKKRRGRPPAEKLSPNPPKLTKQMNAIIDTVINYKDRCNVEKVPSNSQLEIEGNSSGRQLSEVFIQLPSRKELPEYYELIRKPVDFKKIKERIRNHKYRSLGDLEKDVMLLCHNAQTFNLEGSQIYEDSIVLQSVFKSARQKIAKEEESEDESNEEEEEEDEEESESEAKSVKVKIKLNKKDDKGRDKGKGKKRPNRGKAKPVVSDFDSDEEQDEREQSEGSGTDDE
test.protocol: ATPase catalytic activity of BRM, ADP-Glo in vitro biochemical assay
cond: ATPase catalytic activity, ADP-Glo; 30 nM BRM, 400 μM ATP
pIC50: −log10 of the molar value.

compound | pIC50
C[C@H]1CCOc2c(F)cc(C(=O)NCc3cc4nc(N5CCOc6cccnc65)ccc4cn3)cc2S1(=O)=O | 7.84
CCOc1nc(-c2ccc3cnc(CNC(=O)c4ccc5c(c4)S(=O)(=O)CCOC5)cc3n2)ccc1C(F)F | 7.80
Cc1ccc2c(c1)OCCN2c1ccc2cnc(CNC(=O)c3ccc4c(c3)S(=O)(=O)CCCO4)cc2n1 | 7.69
CC1CN(c2cccc(-c3ccc4cnc(CNC(=O)c5cnc6c(c5)S(=O)(=O)C(C)CC6)cc4n3)n2)CC(C)O1 (stereo not drawn) | 7.38
COc1nc(C)ccc1-c1ccc2cnc(CNC(=O)c3ccc4c(c3)S(=O)(=O)[C@@H](C)COC4)cc2n1 | 7.84
N#Cc1ccc2c(c1)N(c1ccc3cnc(CNC(=O)c4ccc5c(c4)S(=O)(=O)CCOC5)cc3n1)CCC2 | 8.03
COC[C@@H]1C[C@H]1N(C)c1cccc(-c2ccc3cnc(CNC(=O)c4ccc5c(c4)S(=O)(=O)CCOC5)cc3n2)n1 | 7.66
O=C(NCc1cc2nc(-c3cccc([C@@]45CCOCC4C5)n3)ccc2cn1)c1ccc2c(c1)S(=O)(=O)CCOC2 (stereo partly drawn) | 7.93
CN(C[C@@H]1CCO1)c1cccc(-c2ccc3cnc(CNC(=O)c4ccc5c(c4)S(=O)(=O)CCOC5)cc3n2)n1 | 8.04
O=C(NCc1cc2nc(-n3cc(F)c(N4CCOCC4)n3)ccc2cn1)c1ccc2c(c1)S(=O)(=O)CCOC2 | 6.56
O=C(NCc1cc2nc(-c3cccc([C@]45CCOCC4C5)n3)ccc2cn1)c1ccc2c(c1)S(=O)(=O)CCOC2 (stereo partly drawn) | 7.91
COc1nc(C(C)(F)F)ccc1-c1ccc2cnc(CNC(=O)c3ccc4c(c3)S(=O)(=O)[C@@H](C)COC4)cc2n1 | 7.77

---

tested.system: BRG-1 (Homo sapiens)
Construct: made in house; host or cells: High Five insect cells
test.protocol: ATPase catalytic activity of BRG-1, ADP-Glo in vitro biochemical assay
cond: ADP-Glo ATPase assay, 30 nM BRG-1, 400 μM ATP; read-out: BRG1 IC50
pIC50: −log10 of the molar value.
I'd appreciate it if you could label each record using pIC50 and these ranges: lower: < 6; middle: ≥ 6 and < 7; upper: ≥ 7

molecule.smiles | assigned.label
CO[C@H](C)COc1ccc2c(c1)N(c1ccc3cnc(CNC(=O)c4ccc5c(c4)S(=O)(=O)CCOC5)cc3n1)CCC2 | upper
O=C(NCc1cc2nc(-c3cn(C4COC4)nc3C3CC3)ccc2cn1)c1ccc2c(c1)S(=O)(=O)CCOC2 | lower
O=C(NCc1cc2nc(-c3cccc(N4CCCC(F)(F)C4)n3)ccc2cn1)c1ccc2c(c1)S(=O)(=O)CCOC2 | upper
CS(=O)(=O)c1cc(C(=O)NCc2cc3nc(-c4cccc(N5CC[C@H]6OCC[C@@H]6C5)n4)ccc3cn2)ccc1Cl | middle
O=C(NCc1cc2cc(-c3cccc(N4CCC4)n3)ccc2cn1)c1cnc2c(c1)S(=O)(=O)CCOC2 | middle
[2H]C1([2H])OC([2H])([2H])[C@H](C)S(=O)(=O)c2cc(C(=O)NCc3cc4nc(-c5cccc(N6C[C@@H](C)O[C@@H](C)C6)n5)ccc4cn3)ccc21 | upper
O=C(NCc1cc2nc(N3CCCc4cccc(Cl)c43)ccc2cn1)c1ccc2c(c1)S(=O)(=O)CCOC2 | lower
C[C@@H]1COCCN1c1cccc(-c2ccc3cnc(CNC(=O)c4ccc5c(c4)S(=O)(=O)CCOC5)cc3n2)n1 | middle
O=C(NCc1cc2nc(-c3ccc4c(n3)CN(C3CC3)CC4)ccc2cn1)c1ccc2c(c1)S(=O)(=O)CCOC2 | lower
O=C(NCc1cc2nc(N3CCc4cccnc43)ccc2cn1)c1ccc2c(c1)S(=O)(=O)CCOC2 | middle
O=C(NCc1ncc2ccc(N3CCOc4cc(C5CC5)cnc43)cc2n1)c1ccc2c(c1)S(=O)(=O)CCOC2 | middle
CS(=O)(=O)c1cc(C(=O)NCc2cc3nc(N4CCCc5cc(C6CC6)cnc54)ccc3cn2)cnc1C(F)F | lower
C[C@@H]1CN(c2cccc(-c3cnc4cnc(CNC(=O)c5ccc(C(F)F)c(S(C)(=O)=O)c5)cc4n3)n2)C[C@H](C)O1 | middle
O=C(NCc1cc2cc(-c3cccc(N4CCC4)n3)ccc2cn1)c1cc(F)c2c(c1)S(=O)(=O)CCOC2 | middle
O=C(NCc1cc2nc(N3CCc4cnccc4C3)ccc2cn1)c1ccc2c(c1)S(=O)(=O)CCOC2 | lower
O=C(NCc1cc2nc(N3CCOc4ccc([C@@H](F)CF)nc43)ccc2cn1)c1ccc2c(c1)S(=O)(=O)CCOC2 | lower
CN(C)c1cccc(-c2ccc3cnc(CNC(=O)c4cc(F)c5c(c4)S(=O)(=O)CCOC5)cc3n2)n1 | middle
